# study_target: T1, human SIRPα v6-Fc (SIRPα6 extracellular domain fused to human IGHG1_Fc) (human, UniProt P78324 31-373; P0DOX5 223-449 = IgG part)
# T1 construct: as m38; also called V6 (e.g. SIRPα6)
# assay_overview: BLI Octet, antigen-Fc on biosensor;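 also: antigen captured on the biosensor tip and then immersed in solutions of the test antibodies, which act as the analyte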
pKd: −log10 of the molar value.
Reported pKd values for the following binders.
experimental_readout: pKd

[[record]]
binder = "SIRPAB-2 (antibody, human IgG1, kappa, V domains shown) VH: QVQLQESGPGLVKPSQTLSLTCTVSGGSISSGGDYWAWIRQHPGKGLEWIGYIYPSGFTYYNPSLKSRVTISVDTSKNQFSLKLSSVTAADTAVYYCAREGYHSGMDVWGQGTTVTVSS VL: DIQMTQSPSSLSASVGDRVTITCQASQDISNYLNWYQQKPGKAPKLLIYDASNLATGVPSRFSGSGSGTDFTFTISSLQPEDIATYYCQQFAYLPWTFGGGTKVEIKR"
reported_result = 7.92

[[record]]
binder = "SIRPAB-7 (antibody, human IgG1, kappa, V domains shown) VH: QVQLQESGPGLVKPSQTLSLTCTVSGGSISSGEYYWEWIRQHPGKGLEWIGYIYSSGFTYYNPSLKSRVTISVDTSKNQFSLKLSSVTAADTAVYYCAREGLDGSYGSSAWGQGTLVTVSS VL: DIQLTQSPSSLSASVGDRVTITCQASQDISNYLNWYQQKPGKAPKLLIYDASNLETGVPSRFSGSGSGTDFTFTISSLQPEDIATYYCQQFAYLPYTFGGGTKVEIKR"
reported_result = 7.91

